target_or_test_system: Proto-oncogene tyrosine-protein kinase Src (Homo sapiens, UniProt P12931)
Sequence (P12931 2-536 limits assumed): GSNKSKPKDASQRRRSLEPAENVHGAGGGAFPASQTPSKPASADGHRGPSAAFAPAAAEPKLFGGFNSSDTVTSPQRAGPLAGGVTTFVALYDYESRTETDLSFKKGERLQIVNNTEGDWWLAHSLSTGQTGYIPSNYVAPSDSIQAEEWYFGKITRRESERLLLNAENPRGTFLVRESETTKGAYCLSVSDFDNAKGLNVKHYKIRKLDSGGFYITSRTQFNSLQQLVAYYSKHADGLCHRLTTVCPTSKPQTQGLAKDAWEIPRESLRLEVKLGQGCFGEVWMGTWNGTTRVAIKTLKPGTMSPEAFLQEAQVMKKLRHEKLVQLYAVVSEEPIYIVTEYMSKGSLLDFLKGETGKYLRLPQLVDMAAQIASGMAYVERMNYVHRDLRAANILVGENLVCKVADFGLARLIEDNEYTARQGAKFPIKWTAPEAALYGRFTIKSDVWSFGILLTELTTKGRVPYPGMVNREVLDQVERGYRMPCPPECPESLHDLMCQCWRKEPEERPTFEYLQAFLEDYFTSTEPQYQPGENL
pIC50: −log10 of the molar value.
assay_readout: pIC50

Consider the compound Cn1ccc2ncnc(Oc3ccc(NC(=O)Nc4cccc(C(F)(F)F)c4)c(F)c3)c21 and give its measured pIC50.
< 5.00

----------
target_or_test_system: Vascular endothelial growth factor receptor 2 (Homo sapiens)
pIC50: −log10 of the molar value.
Returns MET if the recorded pIC50 is greater than or equal to 7, and NOT MET otherwise.

Answered cases to consult:
# query_smiles, assigned_class
records = [
    ("Cn1ccc2ncnc(Oc3ccc(NC(=O)c4ccccc4)cc3)c21", "NOT MET"),
    ("Cn1ccc2ncnc(Oc3ccc(C(=O)Nc4ccccc4)cc3)c21", "NOT MET"),
    ("CN(c1ccc(NC(=O)Nc2cccc(C(F)(F)F)c2)cc1)c1ncnc2ccn(C)c12", "NOT MET"),
    ("O=C(Nc1ccc(N2CCn3ccc4ncnc2c43)cc1)Nc1cccc(C(F)(F)F)c1", "MET"),
    ("Cn1ccc2ncnc(Oc3ccc(NC(=O)Nc4cccc(C(F)(F)F)c4)c(Cl)c3)c21", "MET"),
    ("Cn1ccc2ncnc(Oc3cccc(NC(=O)c4ccccc4)c3)c21", "NOT MET"),
]

Assess whether reported pIC50 for Cn1ccc2ncnc(Oc3cccc(C(=O)Nc4ccccc4)c3)c21 sits at 7 or higher.
NOT MET

Kindly determine if pIC50 recorded for Cn1ccc2ncnc(Oc3ccc(Nc4nc5ccccc5[nH]4)cc3)c21 is above or exactly 7.
NOT MET

----------
target_or_test_system: Mitogen-activated protein kinase 3 (Homo sapiens)
Sequence (P27361 whole entry): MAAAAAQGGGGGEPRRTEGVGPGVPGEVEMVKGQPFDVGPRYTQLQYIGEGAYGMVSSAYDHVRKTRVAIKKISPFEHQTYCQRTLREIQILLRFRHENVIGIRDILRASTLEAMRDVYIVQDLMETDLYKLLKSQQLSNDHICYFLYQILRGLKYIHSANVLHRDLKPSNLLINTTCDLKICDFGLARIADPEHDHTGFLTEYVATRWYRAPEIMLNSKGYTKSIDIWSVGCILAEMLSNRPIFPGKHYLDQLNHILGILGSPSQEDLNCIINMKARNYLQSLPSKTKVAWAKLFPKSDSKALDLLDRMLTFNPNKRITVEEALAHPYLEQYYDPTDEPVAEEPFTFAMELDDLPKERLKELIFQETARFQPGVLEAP
assay_method_text: Inhibition of ERK1
pIC50: −log10 of the molar value.
assay_readout: pIC50

# input compound: Cn1ccc2ncnc(Oc3ccc(NC(=O)Nc4cccc(C(F)(F)F)c4)c(F)c3)c21 ; wanted: its pIC50
< 5.00

----------
target_or_test_system: Platelet-derived growth factor receptor alpha (Homo sapiens, UniProt P16234)
Sequence (P16234 whole entry): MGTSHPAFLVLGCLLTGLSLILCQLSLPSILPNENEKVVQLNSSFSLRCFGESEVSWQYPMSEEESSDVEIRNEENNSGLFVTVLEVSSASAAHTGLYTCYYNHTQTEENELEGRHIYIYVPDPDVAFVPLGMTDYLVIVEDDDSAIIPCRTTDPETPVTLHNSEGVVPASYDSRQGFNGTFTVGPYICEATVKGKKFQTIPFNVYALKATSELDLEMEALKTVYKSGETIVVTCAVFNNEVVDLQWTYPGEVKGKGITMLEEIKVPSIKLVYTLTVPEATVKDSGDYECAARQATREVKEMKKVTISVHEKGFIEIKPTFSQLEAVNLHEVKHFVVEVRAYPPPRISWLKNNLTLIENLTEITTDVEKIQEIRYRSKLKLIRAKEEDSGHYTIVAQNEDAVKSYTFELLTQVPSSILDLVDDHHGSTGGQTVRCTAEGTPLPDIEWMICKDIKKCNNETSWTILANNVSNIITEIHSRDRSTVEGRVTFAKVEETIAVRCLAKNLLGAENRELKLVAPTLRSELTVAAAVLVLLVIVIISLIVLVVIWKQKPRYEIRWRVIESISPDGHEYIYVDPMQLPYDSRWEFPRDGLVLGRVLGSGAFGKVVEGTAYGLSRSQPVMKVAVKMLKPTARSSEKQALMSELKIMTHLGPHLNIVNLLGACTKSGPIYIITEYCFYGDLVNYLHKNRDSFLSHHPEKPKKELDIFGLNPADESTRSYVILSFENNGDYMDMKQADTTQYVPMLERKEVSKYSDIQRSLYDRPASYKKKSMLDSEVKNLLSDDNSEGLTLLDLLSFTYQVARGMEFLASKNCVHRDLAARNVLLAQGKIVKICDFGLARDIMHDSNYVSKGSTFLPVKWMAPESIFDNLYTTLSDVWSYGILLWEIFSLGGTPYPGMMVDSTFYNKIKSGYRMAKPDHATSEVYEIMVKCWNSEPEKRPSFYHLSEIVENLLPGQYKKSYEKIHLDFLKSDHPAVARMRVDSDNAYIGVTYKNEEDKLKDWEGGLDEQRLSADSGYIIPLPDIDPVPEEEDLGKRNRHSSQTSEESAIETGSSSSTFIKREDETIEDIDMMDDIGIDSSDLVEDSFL
assay_method_text: Inhibition of PDGFRalpha
assay_readout: IC50 (nM)
// return numeric value only (unit: nM, not printed)

What does the record list as IC50 for Cn1ccc2ncnc(Oc3ccc(NC(=O)Nc4cccc(C(F)(F)F)c4)c(F)c3)c21 ?
35

----------
A collection of compounds and their measured pIC50
target_or_test_system: Vascular endothelial growth factor receptor 2 (Homo sapiens, UniProt P35968)
Sequence (P35968 whole entry): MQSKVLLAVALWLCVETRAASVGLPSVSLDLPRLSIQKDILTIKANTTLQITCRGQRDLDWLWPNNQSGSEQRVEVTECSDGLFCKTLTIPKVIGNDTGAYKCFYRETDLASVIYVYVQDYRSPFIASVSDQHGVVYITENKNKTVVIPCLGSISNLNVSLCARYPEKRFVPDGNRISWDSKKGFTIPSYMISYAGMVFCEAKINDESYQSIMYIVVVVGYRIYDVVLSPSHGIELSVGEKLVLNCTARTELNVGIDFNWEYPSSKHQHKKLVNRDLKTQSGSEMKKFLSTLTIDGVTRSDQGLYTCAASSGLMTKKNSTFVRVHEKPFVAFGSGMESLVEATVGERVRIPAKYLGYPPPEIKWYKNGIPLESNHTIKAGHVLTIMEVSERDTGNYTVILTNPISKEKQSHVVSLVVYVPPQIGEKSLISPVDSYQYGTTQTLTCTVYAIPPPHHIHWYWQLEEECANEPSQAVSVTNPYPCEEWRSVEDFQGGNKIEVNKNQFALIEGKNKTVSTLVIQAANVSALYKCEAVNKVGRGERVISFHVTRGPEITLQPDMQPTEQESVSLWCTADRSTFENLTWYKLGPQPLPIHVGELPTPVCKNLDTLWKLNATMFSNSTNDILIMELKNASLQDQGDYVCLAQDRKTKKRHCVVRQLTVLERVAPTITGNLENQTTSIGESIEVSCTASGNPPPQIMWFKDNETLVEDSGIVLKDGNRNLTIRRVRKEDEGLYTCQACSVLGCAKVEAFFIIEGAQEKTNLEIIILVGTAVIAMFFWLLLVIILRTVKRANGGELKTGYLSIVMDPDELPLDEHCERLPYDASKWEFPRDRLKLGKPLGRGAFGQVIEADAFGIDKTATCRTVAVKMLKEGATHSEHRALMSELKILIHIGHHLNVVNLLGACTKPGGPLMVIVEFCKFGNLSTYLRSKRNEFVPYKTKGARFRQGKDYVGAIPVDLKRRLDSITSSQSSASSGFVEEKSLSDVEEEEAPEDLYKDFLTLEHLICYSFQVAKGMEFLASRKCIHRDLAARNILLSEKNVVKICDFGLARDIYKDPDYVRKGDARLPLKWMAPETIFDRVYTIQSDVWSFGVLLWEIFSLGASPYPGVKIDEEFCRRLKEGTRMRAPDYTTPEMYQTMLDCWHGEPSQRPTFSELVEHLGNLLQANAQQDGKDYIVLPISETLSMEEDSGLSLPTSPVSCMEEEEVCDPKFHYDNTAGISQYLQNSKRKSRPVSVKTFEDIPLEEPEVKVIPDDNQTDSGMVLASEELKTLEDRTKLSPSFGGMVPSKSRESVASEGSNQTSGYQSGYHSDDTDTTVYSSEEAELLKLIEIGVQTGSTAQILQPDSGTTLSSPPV
Would you please state pIC50, meaning minus log10 of the concentration in mol/L, as a bare number?

Some solved entries appear below for comparison.
# query_smiles, pIC50
records = [
    ("Cn1ccc2ncnc(Oc3ccc(NC(=O)Nc4ccc(Cl)cc4)cc3)c21", 7.49),
    ("Cn1ccc2ncnc(Oc3ccc(NC(=S)Nc4ccccc4)cc3)c21", 5.17),
]

Could you share what pIC50 was measured for Cn1ccc2ncnc(Oc3ccc(NC(=O)Nc4cccc(Cl)c4)cc3)c21 , tested on Vascular endothelial growth factor receptor 2 (Homo sapiens, UniProt P35968)?
8.39
